B1: 26S proteasome non-ATPase regulatory subunit 4 homolog (Arabidopsis thaliana (Mouse-ear cress)), P55034 (parent)
chain: MVLEATMICIDNSEWMRNGDYSPSRLQAQTEAVNLLCGAKTQSNPENTVGILTMAGKGVRVLTTPTSDLGKILACMHGLDVGGEINLTAAIQIAQLALKHRQNKNQRQRIIVFAGSPIKYEKKALEIVGKRLKKNSVSLDIVNFGEDDDEEKPQKLEALLTAVNNNDGSHIVHVPSGANALSDVLLSTPVFTGDEGASGYVSAAAAAAAAGGDFDFGVDPNIDPELALALRVSMEEERARQEAAAKKAADEAGQKDKDGDTASASQETVARTTDKNAEPMDEDSALLDQAIAMSVGDVNMSEAADEDQDLALALQMSMSGEESSEATGAGNNLLGNQAFISSVLSSLPGVDPNDPAVKELLASLPDESKRTEEEESSSKKGEDEKK
partner: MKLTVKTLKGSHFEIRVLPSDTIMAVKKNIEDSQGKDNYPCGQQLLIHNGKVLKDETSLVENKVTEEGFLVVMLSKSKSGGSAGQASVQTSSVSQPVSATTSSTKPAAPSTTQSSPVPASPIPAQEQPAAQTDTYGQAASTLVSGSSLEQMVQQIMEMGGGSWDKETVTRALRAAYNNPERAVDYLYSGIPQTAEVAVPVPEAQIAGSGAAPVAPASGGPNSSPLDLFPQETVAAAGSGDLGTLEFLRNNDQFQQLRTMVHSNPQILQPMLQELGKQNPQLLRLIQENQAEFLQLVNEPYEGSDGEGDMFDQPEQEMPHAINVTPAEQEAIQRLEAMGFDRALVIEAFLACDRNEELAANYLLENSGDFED

variants of: B1; conditions: with rd23b_arath RAD23B
quantity.name: effect of a mutation on the interaction

- variant.description: "L226D;A227D;L228D;A229D;L230D"
  quantity.name: "effect of a mutation on the interaction"
  reading: "with no effect"
- variant.description: "L286N;L287N;Q289N;A290D"
  quantity.name: "effect of a mutation on the interaction"
  reading: "with no effect"
